experiment: growth suppression of yeast trafficking mutant, preliminary HTS, modulators of trafficking downstream of Golgi apparatus project, 1536-format plate, OD 615 nm (AID 637); conditions: yeast transport mutant growth, absorbance 615 nm, 18 h; hits give high values; note: test concentration not given here
endpoint: inhibition (%)
Respond with the bare value in %.

| compound | inhibition [%] |
| --- | --- |
| COC(=O)CC1SCCNC1=O (stereo unspecified) | 23.7 |
| COc1cccc(-n2c(SC3CCOC3=O)nc3ccccc3c2=O)c1 (stereo unspecified) | -6.03 |
| COC(=O)c1c(O)ccc(Oc2ccccc2)c1C(=O)OC | -4.67 |
| Cc1cc(NC(=O)CCC(=O)N(c2cccnc2)C(C(=O)NC2CCCC2)c2ccccc2F)no1 (stereo unspecified) | -2.46 |
| COc1ccc(C)cc1S(=O)(=O)N(CC(=O)O)c1ccccc1 | 4.75 |
| CCCNS(=O)(=O)c1ccc(OCC(=O)NCc2ccco2)cc1 | -3.65 |
| O=C(N1CCOCC1)N1CCC(NC(=O)C23CC4CC(CC(C4)C2)C3)CC1 | 4.84 |
| Cc1cccn2c(=O)c3cc(C#N)c(=NC(=O)c4cccnc4)n(CC4CCCO4)c3nc12 (stereo unspecified) | -9.35 |
| Cc1cc(C)nc(N2CCCC(C(=O)Nc3nc4ccc(S(C)(=O)=O)cc4s3)C2)n1 (stereo unspecified) | 10.8 |
| CC(=O)Nc1cc2c(nc1C)nc(C)n2Cc1ccc(Br)cc1 | 0.33 |

Now for the compound whose inhibition we want.
*Q* Need inhibition of Cc1c(C(=O)NCc2cccnc2)sc2ncn(CC(=O)N3CCCCC3C)c(=O)c12 (stereo unspecified) , thanks.
*A* 1.61

Numbers sourced from PubChem BioAssay.
